- Target System: human erythrocyte acetylcholinesterase (AChE) (Homo sapiens, UniProt P22303)
- Construct: from tissue; host or cells: haemolysed erythrocytes of healthy human donors
- Sequence (P22303 other isoform, or with tags, fused parts or gaps): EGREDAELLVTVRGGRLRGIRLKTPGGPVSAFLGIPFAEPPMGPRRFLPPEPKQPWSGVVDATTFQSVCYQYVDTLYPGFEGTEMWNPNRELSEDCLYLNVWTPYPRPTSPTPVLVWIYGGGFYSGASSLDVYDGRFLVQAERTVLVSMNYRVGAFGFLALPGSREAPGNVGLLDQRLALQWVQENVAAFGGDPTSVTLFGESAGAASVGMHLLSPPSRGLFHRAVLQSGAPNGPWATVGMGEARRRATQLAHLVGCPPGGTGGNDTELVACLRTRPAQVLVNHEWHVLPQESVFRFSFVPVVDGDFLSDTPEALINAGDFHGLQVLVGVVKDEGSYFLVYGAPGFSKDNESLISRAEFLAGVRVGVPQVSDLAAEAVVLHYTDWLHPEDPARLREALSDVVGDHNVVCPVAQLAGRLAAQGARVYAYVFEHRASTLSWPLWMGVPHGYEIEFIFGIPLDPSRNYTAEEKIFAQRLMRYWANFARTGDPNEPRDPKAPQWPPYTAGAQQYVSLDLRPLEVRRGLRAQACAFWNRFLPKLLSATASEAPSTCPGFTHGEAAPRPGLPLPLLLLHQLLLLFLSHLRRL
- Experiment Summary: Kinetic parameters and type of AChE inhibition (Hanes–Woolf)
- Type: biochemical
- Condition Parameters: C: inhibitor at IC50
Measure: vmax AChE, mean ± SD (mA/min)
Use mA/min as the unit, but write only the number.

{"Compound": "CCCCC(CC)CSNC(N)=NC(=N)N(C)C (centres unmarked)", "vmax AChE, mean ± SD (mA/min)": 160.75}

I looked up CN(C)C(=N)N=C(N)NS(=O)(=O)c1ccccc1[N+](=O)[O-] and its vmax AChE, mean ± SD for human erythrocyte acetylcholinesterase (AChE) (Homo sapiens, UniProt P22303) was 118.77

Test item CCCCCCSNC(N)=NC(=N)N(C)C ; human erythrocyte acetylcholinesterase (AChE) (Homo sapiens, UniProt P22303); reported vmax AChE, mean ± SD was 161.59

Recorded vmax AChE, mean ± SD for CN(C)C(=N)N=C(N)NS(=O)(=O)c1ccc(C(F)(F)F)cc1[N+](=O)[O-] on human erythrocyte acetylcholinesterase (AChE) (Homo sapiens, UniProt P22303) was 146.12

For CN(C)C(=N)N=C(N)NS(=O)(=O)c1ccc([N+](=O)[O-])cc1 on human erythrocyte acetylcholinesterase (AChE) (Homo sapiens, UniProt P22303), measured vmax AChE, mean ± SD was 112.29

###

- Target System: human erythrocyte acetylcholinesterase (AChE) (Homo sapiens, UniProt P22303)
- Experiment Summary: biochemical
- Condition Parameters: human erythrocyte AChE; mean ± SD of three independent experiments
Listed here: items and their measured pIC50.
Keep it numeric: pIC50 is minus log10 of the concentration in mol/L.

Past entries and their recorded results:
{"Compound": "CN(C)C(=N)N=C(N)NS(=O)(=O)c1ccc(C(F)(F)F)cc1[N+](=O)[O-] [Compound 5]", "pIC50": 3.67}
{"Compound": "CCCCCCSNC(N)=NC(=N)N(C)C [Compound 1]", "pIC50": 2.50}
{"Compound": "CCCCC(CC)CSNC(N)=NC(=N)N(C)C (centres unmarked) [Compound 2]", "pIC50": 2.43}
{"Compound": "CN(C)C(=N)N=C(N)NS(=O)(=O)c1ccc([N+](=O)[O-])cc1 [Compound 3]", "pIC50": 2.42}

Entry under test: CN(C)C(=N)N=C(N)NS(=O)(=O)c1ccccc1[N+](=O)[O-] [Compound 4] . Its pIC50 was 2.54

###

- Target System: human erythrocyte acetylcholinesterase (AChE) (Homo sapiens, UniProt P22303)
- Construct: from tissue; host or cells: haemolysed erythrocytes of healthy human donors
- Experiment Summary: Kinetic parameters and type of AChE inhibition (Hanes–Woolf)
- Type: biochemical
- Condition Parameters: B: inhibitor at 1/3 of IC50
Measure: vmax AChE, mean ± SD
Phrase the answer as number then unit, nothing more needed.

Worked cases, vmax AChE, mean ± SD given:
{"Molecule": "CN(C)C(=N)N=C(N)NS(=O)(=O)c1ccc(C(F)(F)F)cc1[N+](=O)[O-]", "vmax AChE, mean ± SD": "175.32 ± 33.25 mA/min"}
{"Molecule": "CN(C)C(=N)N=C(N)NS(=O)(=O)c1ccccc1[N+](=O)[O-]", "vmax AChE, mean ± SD": "162.74 ± 5.00 mA/min"}
{"Molecule": "CN(C)C(=N)N=C(N)NS(=O)(=O)c1ccc([N+](=O)[O-])cc1", "vmax AChE, mean ± SD": "147.43 ± 22.32 mA/min"}
{"Molecule": "CCCCC(CC)CSNC(N)=NC(=N)N(C)C (centres unmarked)", "vmax AChE, mean ± SD": "218.43 ± 5.69 mA/min"}

Please look at the following molecule next.
Value of measured vmax AChE, mean ± SD for the entry CCCCCCSNC(N)=NC(=N)N(C)C : 202.18 ± 7.39 mA/min

###

- Target System: human plasma butyrylcholinesterase (BuChE) (Homo sapiens, UniProt P06276)
- Construct: Plasma for determination of BuChE activity was obtained by centrifuging the blood; from tissue; host or cells: plasma of healthy human donors
- Sequence (P06276 29-602): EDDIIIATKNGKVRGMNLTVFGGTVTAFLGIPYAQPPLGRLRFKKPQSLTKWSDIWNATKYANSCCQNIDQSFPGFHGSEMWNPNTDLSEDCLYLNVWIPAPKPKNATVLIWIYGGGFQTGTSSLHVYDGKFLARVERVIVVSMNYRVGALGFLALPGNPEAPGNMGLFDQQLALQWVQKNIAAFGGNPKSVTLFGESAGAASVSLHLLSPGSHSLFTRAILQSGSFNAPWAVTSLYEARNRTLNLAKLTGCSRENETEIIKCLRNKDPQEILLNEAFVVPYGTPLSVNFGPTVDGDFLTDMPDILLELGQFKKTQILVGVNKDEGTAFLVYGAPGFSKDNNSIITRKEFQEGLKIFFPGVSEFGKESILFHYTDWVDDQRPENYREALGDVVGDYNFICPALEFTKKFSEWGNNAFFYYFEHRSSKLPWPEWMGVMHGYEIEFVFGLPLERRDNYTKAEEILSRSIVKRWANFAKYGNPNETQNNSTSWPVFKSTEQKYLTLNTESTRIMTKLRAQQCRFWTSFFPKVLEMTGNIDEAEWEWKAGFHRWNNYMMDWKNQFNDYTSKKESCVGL
- Experiment Summary: Kinetic parameters and type of BuChE inhibition (Hanes–Woolf)
- Format: biochemical
- Condition Parameters: C: inhibitor at IC50; mean ± SD
Measure: Vmax(i) BuChE (A/min)
Please reply with the bare figure in A/min and do not write the unit itself.

Please review the following examples before continuing.
{"Compound": "CN(C)C(=N)N=C(N)NS(=O)(=O)c1ccc([N+](=O)[O-])cc1", "Target System": "human plasma butyrylcholinesterase (BuChE) (Homo sapiens, UniProt P06276)", "Observed": 0.180}
{"Compound": "CN(C)C(=N)N=C(N)NS(=O)(=O)c1ccccc1[N+](=O)[O-]", "Target System": "human plasma butyrylcholinesterase (BuChE) (Homo sapiens, UniProt P06276)", "Observed": 0.174}
{"Compound": "CCCCCCSNC(N)=NC(=N)N(C)C", "Target System": "human plasma butyrylcholinesterase (BuChE) (Homo sapiens, UniProt P06276)", "Observed": 0.174}
{"Compound": "CCCCC(CC)CSNC(N)=NC(=N)N(C)C (centres unmarked)", "Target System": "human plasma butyrylcholinesterase (BuChE) (Homo sapiens, UniProt P06276)", "Observed": 0.103}

Query compound follows.
The compound identified as CN(C)C(=N)N=C(N)NS(=O)(=O)c1ccc(C(F)(F)F)cc1[N+](=O)[O-] registered its Vmax(i) BuChE at 0.202

###

- Target System: human erythrocyte acetylcholinesterase (AChE) (Homo sapiens, UniProt P22303)
- Construct: from tissue; host or cells: haemolysed erythrocytes of healthy human donors
- Experiment Summary: biochemical
- Condition Parameters: IC50 BChE/IC50 AChE
Measure: SI AChE

Form: compound = CCCCCCSNC(N)=NC(=N)N(C)C ; SI AChE = 0.59

Record CN(C)C(=N)N=C(N)NS(=O)(=O)c1ccc([N+](=O)[O-])cc1 , field SI AChE: 0.15

So, CCCCC(CC)CSNC(N)=NC(=N)N(C)C (centres unmarked) ? Its SI AChE was 0.09

So for CN(C)C(=N)N=C(N)NS(=O)(=O)c1ccccc1[N+](=O)[O-] , the logged SI AChE turned out to be 0.30

Entry under test: CN(C)C(=N)N=C(N)NS(=O)(=O)c1ccc(C(F)(F)F)cc1[N+](=O)[O-] . Its SI AChE was 3.23

###

- Target System: human plasma butyrylcholinesterase (BuChE) (Homo sapiens)
- Construct: Plasma for determination of BuChE activity was obtained by centrifuging the blood; from tissue; host or cells: plasma of healthy human donors
- Experiment Summary: Kinetic parameters and type of BuChE inhibition (Hanes–Woolf)
- Format: biochemical
- Condition Parameters: C: inhibitor at IC50
This listing pairs compounds with measured vmax BuChE, mean ± SD.
Please answer using the number first and the unit second.

# count of solved cases: 4
{"Compound": "CN(C)C(=N)N=C(N)NS(=O)(=O)c1ccc([N+](=O)[O-])cc1", "vmax BuChE, mean ± SD": "180.05 ± 19.37 mA/min"}
{"Compound": "CN(C)C(=N)N=C(N)NS(=O)(=O)c1ccccc1[N+](=O)[O-]", "vmax BuChE, mean ± SD": "174.32 ± 5.91 mA/min"}
{"Compound": "CCCCC(CC)CSNC(N)=NC(=N)N(C)C (centres unmarked)", "vmax BuChE, mean ± SD": "103.11 ± 19.12 mA/min"}
{"Compound": "CN(C)C(=N)N=C(N)NS(=O)(=O)c1ccc(C(F)(F)F)cc1[N+](=O)[O-]", "vmax BuChE, mean ± SD": "202.78 ± 2.42 mA/min"}

vmax BuChE, mean ± SD on human plasma butyrylcholinesterase (BuChE) (Homo sapiens) for CCCCCCSNC(N)=NC(=N)N(C)C is 174.27 ± 11.70 mA/min

###

Listing of entries alongside the reported Vmax(i) AChE.
- Target System: human erythrocyte acetylcholinesterase (AChE) (Homo sapiens, UniProt P22303)
- Construct: from tissue; host or cells: haemolysed erythrocytes of healthy human donors
- Experiment Summary: Kinetic parameters and type of AChE inhibition (Hanes–Woolf)
- Type: biochemical
- Condition Parameters: B: inhibitor at 1/3 of IC50; mean ± SD
- Experimental: The absorbance was recorded at λ = 436 nm using a CECIL 2021 spectrophotometer (CECIL Instruments Limited, Cambridge, UK) with a thermostatic water flow (temperature 37° C). AChE Selectivity Index (SI) was calculated with the aid of the following formula: SI = IC50 of BChE/IC50 of AChE. In turn BuChE SI was defined as IC50 of AChE/IC50 of BChE. Linear regression (Hanes–Woolf plots) were used to estimate the maximal velocity (Vmax) and the Michaelis constant (Km). […]
# number only, unit A/min dropped from output

Worked set:
{"Compound": "CCCCC(CC)CSNC(N)=NC(=N)N(C)C (centres unmarked)", "Target System": "human erythrocyte acetylcholinesterase (AChE) (Homo sapiens, UniProt P22303)", "Measure": "Vmax(i) AChE", "Observed": 0.218}
{"Compound": "CN(C)C(=N)N=C(N)NS(=O)(=O)c1ccc([N+](=O)[O-])cc1", "Target System": "human erythrocyte acetylcholinesterase (AChE) (Homo sapiens, UniProt P22303)", "Measure": "Vmax(i) AChE", "Observed": 0.147}
{"Compound": "CN(C)C(=N)N=C(N)NS(=O)(=O)c1ccccc1[N+](=O)[O-]", "Target System": "human erythrocyte acetylcholinesterase (AChE) (Homo sapiens, UniProt P22303)", "Measure": "Vmax(i) AChE", "Observed": 0.163}
{"Compound": "CCCCCCSNC(N)=NC(=N)N(C)C", "Target System": "human erythrocyte acetylcholinesterase (AChE) (Homo sapiens, UniProt P22303)", "Measure": "Vmax(i) AChE", "Observed": 0.202}

Vmax(i) AChE reported for this compound CN(C)C(=N)N=C(N)NS(=O)(=O)c1ccc(C(F)(F)F)cc1[N+](=O)[O-] : 0.175
